# test.details: Pharmacokinetics in normal rats after oral administration of Zushima-Gancao extract (UHPLC-MS/MS of plasma)
# Type: in vivo
# conditions.used: male, Sprague-Dawley, rat, oral Zushima-Gancao extract 10 mL/kg single dose, n = 6, mean ± SD
measured.metric: AUC(0-t) (ng·h/mL)

compound="O=c1ccc2ccc(O)cc2o1 [HDC, 7-hydroxycoumarin]" measured_metric=AUC(0-t) obs_value=142
compound="O=C(/C=C/c1ccc(O)cc1)c1ccc(O)cc1O [ILG, isoliquiritigenin]" measured_metric=AUC(0-t) obs_value=8.89
compound="CC1(C)[C@@H](O)CC[C@]2(C)[C@H]3C(=O)C=C4[C@@H]5C[C@@](C)(C(=O)O)CC[C@]5(C)CC[C@@]4(C)[C@]3(C)CC[C@@H]12 [GA, glycyrrhetinic acid]" measured_metric=AUC(0-t) obs_value=1940
compound="O=C1C[C@@H](c2ccc(O)cc2)Oc2cc(O)ccc21 [LG, liquiritigenin]" measured_metric=AUC(0-t) obs_value=169
compound="COc1cc2cc(Oc3ccc4ccc(=O)oc4c3)c(=O)oc2cc1O [DR, daphnoretin]" measured_metric=AUC(0-t) obs_value=131
compound="O=c1ccc2ccc(O)c(O)c2o1 [DPH, daphnetin]" measured_metric=AUC(0-t) obs_value=246
compound="O=C(/C=C/c1ccc(O[C@@H]2O[C@H](CO)[C@@H](O)[C@H](O)[C@H]2O)cc1)c1ccc(O)cc1O [ILQ, isoliquiritin]" measured_metric=AUC(0-t) obs_value=6.72
compound="O=C1C[C@@H](c2ccc(O[C@@H]3O[C@H](CO)[C@@H](O)[C@H](O)[C@H]3O)cc2)Oc2cc(O)ccc21 [LQ, liquiritin]" measured_metric=AUC(0-t) obs_value=45.5
compound="CC1(C)[C@@H](O[C@H]2O[C@H](C(=O)O)[C@@H](O)[C@H](O)[C@H]2O[C@@H]2O[C@H](C(=O)O)[C@@H](O)[C@H](O)[C@H]2O)CC[C@]2(C)[C@H]3C(=O)C=C4[C@@H]5C[C@@](C)(C(=O)O)CC[C@]5(C)CC[C@@]4(C)[C@]3(C)CC[C@@H]12 [GL, glycyrrhizin]" measured_metric=AUC(0-t) obs_value=248

###

Recorded Long-Term Stability RE values for a group of compounds are listed next.
# test.details: Stability test of analytes in rat plasma (QC samples)
# Assay type: physicochemical
# conditions.used: middle concentration, −80 °C for a week
measured.metric: Long-Term Stability RE (%)

compound=O=C1C[C@@H](c2ccc(O[C@@H]3O[C@H](CO)[C@@H](O)[C@H](O)[C@H]3O)cc2)Oc2cc(O)ccc21 measured_metric="Long-Term Stability RE" obs_value=−0.13
compound=O=c1ccc2ccc(O)c(O)c2o1 measured_metric="Long-Term Stability RE" obs_value=−15
compound=COc1cc2cc(Oc3ccc4ccc(=O)oc4c3)c(=O)oc2cc1O measured_metric="Long-Term Stability RE" obs_value=−14.41
compound="O=c1ccc2ccc(O)cc2o1 [HDC, 7-hydroxycoumarin]" measured_metric="Long-Term Stability RE" obs_value=−1.8
compound=O=C(/C=C/c1ccc(O[C@@H]2O[C@H](CO)[C@@H](O)[C@H](O)[C@H]2O)cc1)c1ccc(O)cc1O measured_metric="Long-Term Stability RE" obs_value=5.37

###

# test.details: Pharmacokinetics in adjuvant-induced arthritis (AA) rats after oral administration of Zushima-Gancao extract (UHPLC-MS/MS of plasma)
# conditions.used: male, Sprague-Dawley, rat, in vivo, po, 10 mL/kg
measured.metric: half-life (min)

smiles_string=O=C(/C=C/c1ccc(O[C@@H]2O[C@H](CO)[C@@H](O)[C@H](O)[C@H]2O)cc1)c1ccc(O)cc1O obs_value=56.4
